Items are presented alongside their recorded MIC.
# System: Klebsiella pneumoniae KPN+19-15
# Type: cell-based
# run parameters: KPN+19-15
Bridge positions count the residues as written; N and C are the ends. Square brackets hold non-standard residues; d marks the D form. Peptide text beside a SMILES is read from it. * marks the point of attachment. Heptanoyl(6-Me) = CC(C)CCCCC(=O)*; Sulfomethyl = O=S(=O)(O)C*; Nonanoyl = CCCCCCCCC(=O)*; dDap = NC[C@@H](N)C(=O)O; Dab = NCC[C@H](N)C(=O)O; Dap = NC[C@H](N)C(=O)O
# output: bare number, implied unit µg/mL

Here are 2 compounds together with their reported answers.
compound | experimental result
CC(C)CCCCC(=O)N[C@@H](CCN)C(=O)N[C@H](C(=O)N[C@H](CO)C(=O)N[C@H]1CCNC(=O)[C@H]([C@@H](C)O)NC(=O)[C@H](CCN)NC(=O)[C@H](CN)NC(=O)[C@H]([C@@H](C)O)NC(=O)[C@@H](Cc2ccccc2)NC(=O)[C@H](CCN)NC1=O)[C@@H](C)O [Compound 72] ({Heptanoyl(6-Me)}-[Dab]T[dS][Dab][Dab][dF]T[Dap][Dab]T; lactam 4-C) | 0.5
CCCCCCCCC(=O)N[C@@H](CCN)C(=O)N[C@H](C(=O)N[C@H](CN)C(=O)N[C@H]1CCNC(=O)[C@H]([C@@H](C)O)NC(=O)[C@H](CCN)NC(=O)[C@H](CCN)NC(=O)[C@H](CC(C)C)NC(=O)[C@@H](Cc2ccccc2)NC(=O)[C@H](CCN)NC1=O)[C@@H](C)O [Compound 35] (Nonanoyl-[Dab]T[dDap][Dab][Dab][dF]L[Dab][Dab]T; lactam 4-C) | 0.06

Next, consider the following compound.
Sample CC(C)CCCCC(=O)N[C@@H](CCN)C(=O)N[C@H](C(=O)N[C@@H](CN)C(=O)N[C@H]1CCNC(=O)[C@H]([C@@H](C)O)NC(=O)[C@H](CCN)NC(=O)[C@H](CCN)NC(=O)[C@H]([C@@H](C)O)NC(=O)[C@@H](Cc2ccccc2)NC(=O)[C@H](CCN)NC1=O)[C@@H](C)OCS(=O)(=O)O [Compound 113] ({Heptanoyl(6-Me)}-[Dab]T(Sulfomethyl)[Dap][Dab][Dab][dF]T[Dab][Dab]T; lactam 4-C) — what was its MIC?
0.125

* * *

Items are presented alongside their recorded MIC.
# Test system: Escherichia coli ATCC BAA-2523
# Format: cell-based
# run parameters: ATCC BAA-2523
Bridge positions count the residues as written; N and C are the ends. Square brackets hold non-standard residues; d marks the D form. Peptide text beside a SMILES is read from it. * marks the point of attachment. X1 = CC[C@H](C)CCCCC(=O)*; dDab = NCC[C@@H](N)C(=O)O; Heptanoyl = CCCCCCC(=O)*; Octanoyl = CCCCCCCC(=O)*; dDap = NC[C@@H](N)C(=O)O; Dab = NCC[C@H](N)C(=O)O; Dap = NC[C@H](N)C(=O)O

compound | target system | MIC
CCCCCCCC(=O)N[C@@H](CCN)C(=O)N[C@H](C(=O)N[C@H](CN)C(=O)N[C@H]1CCNC(=O)[C@H]([C@@H](C)O)NC(=O)[C@H](CCN)NC(=O)[C@H](CCN)NC(=O)[C@H]([C@@H](C)O)NC(=O)[C@@H](Cc2ccccc2)NC(=O)[C@H](CCN)NC1=O)[C@@H](C)O [Compound 3] (Octanoyl-[Dab]T[dDap][Dab][Dab][dF]T[Dab][Dab]T; lactam 4-C) | Escherichia coli ATCC BAA-2523 | ≤0.03 µg/mL
CC[C@H](C)CCCCC(=O)N[C@@H](CCN)C(=O)N[C@H](C(=O)N[C@@H](CN)C(=O)N[C@H]1CCNC(=O)[C@H]([C@@H](C)O)NC(=O)[C@H](CCN)NC(=O)[C@H](CCN)NC(=O)[C@H]([C@@H](C)O)NC(=O)[C@@H](Cc2ccccc2)NC(=O)[C@H](CCN)NC1=O)[C@@H](C)O [Compound 6] (X1-[Dab]T[Dap][Dab][Dab][dF]T[Dab][Dab]T; lactam 4-C) | Escherichia coli ATCC BAA-2523 | ≤0.03 µg/mL

Query for Escherichia coli ATCC BAA-2523: what MIC does the record show for CCCCCCC(=O)N[C@@H](CN)C(=O)N[C@H](C(=O)N[C@H](CCN)C(=O)N[C@H]1CCNC(=O)[C@H]([C@@H](C)O)NC(=O)[C@H](CCN)NC(=O)[C@H](CCN)NC(=O)[C@H](CC(C)C)NC(=O)[C@@H](Cc2ccccc2)NC(=O)[C@H](CCN)NC1=O)[C@@H](C)O [Compound 94] (Heptanoyl-[Dap]T[dDab][Dab][Dab][dF]L[Dab][Dab]T; lactam 4-C) ?
0.06 µg/mL

* * *

# Test system: Escherichia coli ATCC BAA-2523
# Assay type: cell-based
# run parameters: ATCC BAA-2523
Bridge positions count the residues as written; N and C are the ends. Square brackets hold non-standard residues; d marks the D form. Peptide text beside a SMILES is read from it. * marks the point of attachment. X1 = CC[C@H](C)CCCCC(=O)*; Heptanoyl = CCCCCCC(=O)*; Orn = NCCC[C@H](N)C(=O)O; Dab = NCC[C@H](N)C(=O)O; Dap = NC[C@H](N)C(=O)O
result type: MIC (mg/L)
# output: bare number, implied unit mg/L

compound | target system | units symbol | experimental result
CCCCCCC(=O)N[C@@H](CCN)C(=O)N[C@H](C(=O)N[C@H](CO)C(=O)N[C@H]1CCNC(=O)[C@H]([C@@H](C)O)NC(=O)[C@H](CCCN)NC(=O)[C@H](CCN)NC(=O)[C@H]([C@@H](C)O)NC(=O)[C@@H](Cc2ccccc2)NC(=O)[C@H](CCN)NC1=O)[C@@H](C)O [Compound 89] (Heptanoyl-[Dab]T[dS][Dab][Dab][dF]T[Dab][Orn]T; lactam 4-C) | Escherichia coli ATCC BAA-2523 | mg/L | 0.125

Sample CC[C@H](C)CCCCC(=O)N[C@@H](CCN)C(=O)N[C@H](C(=O)N[C@@H](CN)C(=O)N[C@H]1CCNC(=O)[C@H]([C@@H](C)O)NC(=O)[C@H](CCN)NC(=O)[C@H](CCN)NC(=O)[C@H](CC(C)C)NC(=O)[C@@H](Cc2ccccc2)NC(=O)[C@H](CCN)NC1=O)[C@@H](C)O [Compound 36] (X1-[Dab]T[Dap][Dab][Dab][dF]L[Dab][Dab]T; lactam 4-C) — what was its MIC?
0.03

* * *

# Test system: Pseudomonas aeruginosa ATCC 27853
# Format: cell-based
# run parameters: ATCC 27853
Numbered stars: 1 amine (or outer) side, 2 acyl side, 3 side chain; on linkers, the order of the positions; unused ones are H or OH. Bridge positions count the residues as written; N and C are the ends. Square brackets hold non-standard residues; d marks the D form. Peptide text beside a SMILES is read from it. * marks the point of attachment. X2 = O=C([C@H](CNCS(=O)(=O)O)N[*:1])[*:2]; Heptanoyl(6-Me) = CC(C)CCCCC(=O)*; X1 = CC[C@H](C)CCCCC(=O)*; Heptanoyl = CCCCCCC(=O)*; Dab = NCC[C@H](N)C(=O)O; Dap = NC[C@H](N)C(=O)O
result type: MIC (µg/mL)
# output: bare number, implied unit µg/mL

Here are 2 molecules together with their reported answers.
molecule | units symbol | experimental result
CC(C)CCCCC(=O)N[C@@H](CCN)C(=O)N[C@H](C(=O)N[C@@H](CNCS(=O)(=O)O)C(=O)N[C@H]1CCNC(=O)[C@H]([C@@H](C)O)NC(=O)[C@H](CCN)NC(=O)[C@H](CCN)NC(=O)[C@H]([C@@H](C)O)NC(=O)[C@@H](Cc2ccccc2)NC(=O)[C@H](CCN)NC1=O)[C@@H](C)O [Compound 112] ({Heptanoyl(6-Me)}-[Dab]T[X2][Dab][Dab][dF]T[Dab][Dab]T; lactam 4-C) | µg/mL | 0.25
CC[C@H](C)CCCCC(=O)N[C@@H](CCN)C(=O)N[C@H](C(=O)N[C@@H](CN)C(=O)N[C@H]1CCNC(=O)[C@H]([C@@H](C)O)NC(=O)[C@H](CCN)NC(=O)[C@H](CCN)NC(=O)[C@H]([C@@H](C)O)NC(=O)[C@@H](Cc2ccccc2)NC(=O)[C@H](CCN)NC1=O)[C@@H](C)O [Compound 6] (X1-[Dab]T[Dap][Dab][Dab][dF]T[Dab][Dab]T; lactam 4-C) | µg/mL | 0.03

Next, consider the following molecule.
Query for Pseudomonas aeruginosa ATCC 27853: what MIC does the record show for CCCCCCC(=O)N[C@@H](CCN)C(=O)N[C@H](C(=O)N[C@@H](CN)C(=O)N[C@H]1CCNC(=O)[C@H]([C@@H](C)O)NC(=O)[C@H](CCN)NC(=O)[C@H](CCN)NC(=O)[C@H](CC(C)C)NC(=O)[C@@H](Cc2ccccc2)NC(=O)[C@H](CCN)NC1=O)[C@@H](C)O [Compound 39] (Heptanoyl-[Dab]T[Dap][Dab][Dab][dF]L[Dab][Dab]T; lactam 4-C) ?
0.06

The origin of these recorded values is patent EP4725957A1.
